# target-under-test: T1, GST-MUPP1 PDZ domain 3 (Homo sapiens (Human)), O75970
# T1 chain: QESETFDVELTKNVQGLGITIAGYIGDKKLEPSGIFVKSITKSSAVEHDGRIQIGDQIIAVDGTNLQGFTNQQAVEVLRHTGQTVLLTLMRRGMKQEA
# assay-info: G assay titration, PDZ 5 ug/ml
measured-parameter: Kd (nM)

>  <binder>
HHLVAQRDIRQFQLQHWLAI (modifications not checked) [noradrenaline transporter]

>  <meas-value>
400

$$$$
